Tested on: C57BL/6 mice given hANGPTL4-mFc
Assay type: in vivo
Settings: antibody 5 mg/kg s.c.; 24 h later hANGPTL4-mFc 25 μg/mouse i.v.; bled 30 min after; mean±SEM
We begin with a simple list: items and their reported HDL.
The reply should contain only the number, in mg/dL.

Req: HDL for H1H283P: anti-hANGPTL4 antibody, HCVR/LCVR SEQ ID NOs 66/68 (antibody, V domains shown) VH: EVQLVESGGGLVQPGGSLRLSCAASGFTFSSYDMHWVRQVAGKGLEWVSAIGTAGDTYYPVSVKGRFTISRENAKNSLYLHMNSLRAGDTAVYFCARGDSRNYYVGDYFDYWGQGTLVTVSS VL: DIQMTQSPSTLSASVGDRVTITCRASQSISRWLAWYQQKPGKAPKVLIYKASNLESGVPSRFSGSGSGTEFTLTISSLQPDDFATYYCQQYNSYSRTFGQGTKVEIK ?
Resp: 40.30

Req: Next: H1H268P: anti-hANGPTL4 antibody, hIgG1 isotype, HCVR/LCVR SEQ ID NOs 42/44 (antibody, V domains shown) VH: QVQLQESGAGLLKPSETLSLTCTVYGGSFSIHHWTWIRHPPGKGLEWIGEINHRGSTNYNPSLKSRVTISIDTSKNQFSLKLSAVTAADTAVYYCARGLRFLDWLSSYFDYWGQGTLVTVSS VL: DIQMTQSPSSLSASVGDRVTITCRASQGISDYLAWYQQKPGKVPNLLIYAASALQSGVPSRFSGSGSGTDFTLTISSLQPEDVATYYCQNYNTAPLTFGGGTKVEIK
Resp: 35.94
